Values were extracted from patent US9006232B2.

# Experimental system: bovine cerebral TPK1 (Bos taurus)
# Sequence (A0A059UE90 1-419): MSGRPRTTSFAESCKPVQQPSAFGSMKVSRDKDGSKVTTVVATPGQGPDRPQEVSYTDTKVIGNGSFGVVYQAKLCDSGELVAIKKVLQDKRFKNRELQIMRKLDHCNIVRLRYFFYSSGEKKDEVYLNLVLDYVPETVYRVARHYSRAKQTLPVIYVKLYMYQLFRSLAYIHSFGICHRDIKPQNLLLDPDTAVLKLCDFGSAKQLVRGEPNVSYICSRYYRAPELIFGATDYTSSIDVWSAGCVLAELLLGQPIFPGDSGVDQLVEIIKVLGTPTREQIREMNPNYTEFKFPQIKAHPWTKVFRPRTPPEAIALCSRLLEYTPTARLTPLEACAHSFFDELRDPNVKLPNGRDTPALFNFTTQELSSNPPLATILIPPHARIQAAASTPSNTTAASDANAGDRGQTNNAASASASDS
# Method summary: Inhibitory activity against P-GS1 phosphorylation by bovine cerebral TPK1
# Type: biochemical
# Experimental parameters: P-GS1 phosphorylation, 41.7 μM [γ-32P] ATP, 25° C., 2 hours; read-out: IC50
Value type: IC50 (nM)

See these solved cases before continuing.
[[record]]
molecule = "Cn1c(OC2CCCCC2)nc(-c2ccncn2)cc1=O"
experimental_system = "bovine cerebral TPK1 (Bos taurus)"
value_type = "IC50"
quantity_unit = "nM"
experimental_value = 22.6

[[record]]
molecule = "Cn1c(OC[C@H]2CCN(c3ccccc3)C2)nc(-c2ccncn2)cc1=O"
experimental_system = "bovine cerebral TPK1 (Bos taurus)"
value_type = "IC50"
quantity_unit = "nM"
experimental_value = 941

[[record]]
molecule = "Cn1c(OC2CCN(c3ccc4c(c3)CNC4)CC2)nc(-c2ccncn2)cc1=O"
experimental_system = "bovine cerebral TPK1 (Bos taurus)"
value_type = "IC50"
quantity_unit = "nM"
experimental_value = 9.4

[[record]]
molecule = "Cn1c(OC2CCN(C(=O)Oc3ccccc3)CC2)nc(-c2ccncn2)cc1=O"
experimental_system = "bovine cerebral TPK1 (Bos taurus)"
value_type = "IC50"
quantity_unit = "nM"
experimental_value = 108

[[record]]
molecule = "CN1CCN(Cc2ccc([C@H]3CC[C@@H](Oc4nc(-c5ccncn5)cc(=O)n4C)CC3)cc2)CC1"
experimental_system = "bovine cerebral TPK1 (Bos taurus)"
value_type = "IC50"
quantity_unit = "nM"
experimental_value = 30.3


I: CN1CCN(Cc2ccc([C@H]3CC[C@H](Oc4nc(-c5ccncn5)cc(=O)n4C)CC3)cc2)CC1
II: Cn1c(OC2CCN(c3ccc(CN4CCN(C(=O)OC(C)(C)C)CC4)cc3)CC2)nc(-c2ccncn2)cc1=O
Q) // returns I or II , whichever has the lower IC50 Your choice should be expressed through its label.
A) I
(I: 7.8 nM, II: 19.1 nM)

a: Cn1c(OC2CCN(c3ccc([N+](=O)[O-])s3)CC2)nc(-c2ccncn2)cc1=O
b: Cn1c(OC2CCN(C(=O)OCc3ccccc3)CC2)nc(-c2ccncn2)cc1=O
c: Cn1c(OC2CCN(c3ccc(-c4ccncc4)cc3)CC2)nc(-c2ccncc2F)cc1=O
Q) List the 3 entries from lowest IC50 to highest IC50 value. Please respond with the labels ordered as the question requires.
A) c, b, a

a: Cn1c(OC[C@H]2CCN(c3ccsc3)C2)nc(-c2ccncn2)cc1=O
b: CN1CCC(CCN2CCC(Oc3nc(-c4ccncn4)cc(=O)n3C)CC2)CC1
Q) // returns a or b , whichever has the lower IC50 Your choice should be expressed through its label.
A) b

a: CN(C)Cc1ccccc1N1CCC(Oc2nc(-c3ccncn3)cc(=O)n2C)CC1
b: Cc1ccc(S(=O)(=O)N2CCC(Oc3nc(-c4ccncn4)cc(=O)n3C)CC2)cc1
Q) // returns a or b , whichever has the lower IC50 Your choice should be expressed through its label.
A) a

A: Cn1c(OC2CCN(c3ccc(CN4CCCC4)cc3)CC2)nc(-c2ccncn2)cc1=O
B: CC1CCCCC1Oc1nc(-c2ccncn2)cc(=O)n1C (centres unmarked)
C: Cn1c(OC2CCN(c3ccc(N4CCN(C(=O)OC(C)(C)C)CC4)cc3)CC2)nc(-c2ccncn2)cc1=O
D: Cn1c(O[C@H]2CC[C@@H](c3ccc(CO)cc3)CC2)nc(-c2ccncn2)cc1=O
E: Cn1c(OC[C@@H]2CCCN2c2ccc(F)cc2)nc(-c2ccncn2)cc1=O
Q) Please give the order of these molecules when sorted by IC50, largest value leading. Please respond with the labels ordered as the question requires.
A) C, D, B, E, A
(C: 977 nM, D: 124 nM, B: 58.1 nM, E: 37.6 nM, A: 12 nM)

1: Cn1c(OC2CCCN(c3cccc(F)c3)C2)nc(-c2ccncn2)cc1=O (centres unmarked)
2: CCCCCCc1ccc(Oc2nc(-c3ccncn3)cc(=O)n2C)cc1
Q) Which of the two items, 1 and 2 , has the greater recorded IC50? Your choice should be expressed through its label.
A) 2

a: CN(C)Cc1ccc(N2CCC(Oc3nc(-c4ccncn4)cc(=O)n3C)CC2)cc1
b: CCCCCCOc1nc(-c2ccncc2)cc(=O)n1C
c: Cn1c(OC2CCCC2)nc(-c2ccncn2)cc1=O
d: Cn1c(OC2CCN(c3ccccc3CN3CCOCC3)CC2)nc(-c2ccncn2)cc1=O
Q) List the 4 entries from lowest IC50 to highest IC50 value. Please respond with the labels ordered as the question requires.
A) a, d, c, b

a: Cn1c(OC2CCN(c3ccc(CN4CCOCC4)cc3)CC2)nc(-c2ccncn2)cc1=O
b: COC(=O)N1CCCC(Oc2nc(-c3ccncn3)cc(=O)n2C)C1 (centres unmarked)
c: Cn1c(OCCc2ccccc2)nc(-c2ccncc2)cc1=O
d: Cn1c(OCCc2ccc(CN3CCCCC3)cc2)nc(-c2ccncc2)cc1=O
e: Cc1ccccc1N1CCC(Oc2nc(-c3ccncn3)cc(=O)n2C)CC1
Q) List the 5 entries from lowest IC50 to highest IC50 value. Please respond with the labels ordered as the question requires.
A) a, b, e, d, c
(a: 19.4 nM, b: 28.2 nM, e: 59.9 nM, d: 110 nM, c: 200 nM)
